- target.under.test: T1, mouse TEAD4(210–427), as purified (SPR) (mouse), Q62296
- T1 chain: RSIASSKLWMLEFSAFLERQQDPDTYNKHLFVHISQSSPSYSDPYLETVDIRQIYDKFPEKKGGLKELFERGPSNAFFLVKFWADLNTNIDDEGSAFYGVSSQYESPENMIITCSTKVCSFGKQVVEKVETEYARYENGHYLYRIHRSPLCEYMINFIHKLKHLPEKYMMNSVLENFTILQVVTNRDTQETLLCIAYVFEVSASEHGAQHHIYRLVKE
- experimental.details: SPR; GST-hTEAD1 and mTEAD4 covalently tethered (NHS/EDC) on CM5 chips, 2000–3000 RU; peptides as analytes, threefold dilutions, typically 30 µM top concentration; 10 mM HEPES, 150 mM NaCl, 0.05% Tween-20, pH 7.4, 0.3% DMSO, 20 °C; steady-state fit, 1:1 model
readout.label: Kd

Use these answered entries as a reference point.
KEPEPAPNSVSITG (modifications not checked) [VGL4 intervening extended stretch peptide (peptide 3), Q80V24 203-256]    > 100 µM
DTWLQIKAA (modifications not checked) [isolated helix peptide 6 derived from the VGL4 two-helix motif 4, Q80V24 203-256]    > 100 µM

Ask | // returns reported Kd for input SVDDHFAKALG (modifications not checked) [isolated helix peptide 5 derived from the VGL4 two-helix motif 4, Q80V24 203-256]
Reply | > 100 µM
